Test: Solubility in simulated fluids and water
Format: physicochemical
Details: Fasted-State Simulated Intestinal Fluid (FaSSIF), fassif, thermodynamic from solid, 24 h
Readout: solubility at 24 h (µg/mL)
One number for each entry, in µg/mL.

## Task What does the record list as solubility at 24 h for CCCCCCCCCC1=C(C)C(=O)C(C)=C(C)C1=O ?
## Result 40
